Source of measurements: ChEMBL document CHEMBL5096164

- ASSAY_PROTOCOL: Half life in rat at 0.06 mg/kg via inhalation
- Assay type: ADME, organism-based
- CONDITION_PARAMETERS: in vivo, inhaled or intranasal, route inh
EXPERIMENTAL_ENDPOINT: half-life (h)

- C1=CCC(c2cccnc2)NC1 (stereo unspecified): 3.96

---

- ASSAY_PROTOCOL: Tmax in Wistar rat plasma at 2 mg/kg, iv administered as bolus dose measured after 5 to 360 mins by LC-MS/MS analysis
- Assay type: ADME, organism-based
- CONDITION_PARAMETERS: time 5-360 min
EXPERIMENTAL_ENDPOINT: Tmax (min)

• C1=CCC(c2cccnc2)NC1 (stereo unspecified) = 9.6
